# subject.of.test: Kallikrein-7 (Homo sapiens)
# Sequence (P49862 whole entry, the tested form may be a part): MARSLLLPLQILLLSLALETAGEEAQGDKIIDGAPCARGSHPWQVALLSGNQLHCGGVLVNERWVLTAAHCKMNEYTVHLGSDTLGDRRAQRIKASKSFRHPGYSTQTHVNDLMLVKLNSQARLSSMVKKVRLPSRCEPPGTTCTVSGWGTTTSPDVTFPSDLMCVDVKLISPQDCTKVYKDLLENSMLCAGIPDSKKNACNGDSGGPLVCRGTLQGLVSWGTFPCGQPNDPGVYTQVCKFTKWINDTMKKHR
# test.method.notes: Inhibition of thermolysin activated recombinant human C-terminal 10-His tagged KLK7 (E23 to H252 residues) using MOCAc-Arg-Pro-Lys-Pro-Val-Glu-Nva-Trp-Arg-Lys(Dnp)-NH2 as substrate preincubated for 10 mins followed by substrate addition and measured after 30 mins by fluorescence analysis
parameter: pIC50
Answers are plain numbers, as −log10 of the molar value.

The cases that follow already have their pIC50 on record.
Check Kallikrein-7 (Homo sapiens) data and give pIC50 for CC1=NC(c2cn(S(=O)(=O)c3ccccc3C#N)c3ccc(C)cc23)CN1 (stereo not given) . 5.17

# return pIC50 of CC1=NC(c2cn(S(=O)(=O)c3c(Cl)cccc3Cl)c3ccc(C)cc23)CN1 (stereo not given) (system: Kallikrein-7 (Homo sapiens)) 4.85

Tell me pIC50 of CC1=NC(c2cn(S(=O)(=O)c3ccc(Cl)cc3)c3ccc(Br)cc23)CN1 (stereo not given) when tested on Kallikrein-7 (Homo sapiens). 5.33

# assay system Kallikrein-7 (Homo sapiens): give pIC50 of CC1=NC(c2cn(S(=O)(=O)c3ccc(F)cc3)c3ccc(C)cc23)CN1 (stereo not given) 5.03

Report pIC50 under test system Kallikrein-7 (Homo sapiens) for CC1=NC(c2cn(S(=O)(=O)c3ccccc3F)c3ccc(C)cc23)CN1 (stereo not given) . 5.39

For each of the molecules below, note its pIC50.
1. CCC1=NC(c2cn(S(=O)(=O)c3ccc(C)cc3)c3ccccc23)CN1 (stereo not given)
2. CC1=NC(c2cn(S(=O)(=O)c3ccc(C)cc3)c3ccccc23)CN1 (stereo not given)
3. CC1=NC(c2cn(S(=O)(=O)c3ccc(Cl)cc3)c3ccccc23)CN1 (stereo not given)
4. CC1=NC(c2cn(S(=O)(=O)c3ccccc3)c3ccc(C)cc23)CN1 (stereo not given)

1: 4.62; 2: 5.00; 3: 5.24; 4: 4.77

Attribution: ChEMBL document CHEMBL4371036
